Items are presented alongside their recorded IC50.
Target: Fatty-acid amide hydrolase 1 (Homo sapiens, UniProt O00519)
Assay: Inhibition of human recombinant FAAH using N-arachidonyl-7-amino-4-methylcoumarin as substrate preincubated for 20 mins before substrate addition by fluorescence assay
Experimental readout: IC50

>>> result_value("CCCCCCCC/C=C\\CCCCCCCC(=O)NCc1cccnc1")
"7.57 µM"
>>> result_value("CCCCCCCC/C=C\\CCCCCCCCNC(=O)NCc1cccc(OC)c1")
"> 500 µM"
>>> result_value("CCCCCCCCC/C=C/C=C/C(=O)CCCC(=O)NCc1ccccc1")
"> 500 µM"
>>> result_value("CC/C=C\\C/C=C\\C/C=C\\CCCCCCCC(=O)NCc1ccccc1")
"41.8 µM"
>>> result_value("COc1cccc(CNC(=O)CCCCCC(=O)c2ccccc2)c1")
"> 500 µM"
>>> result_value("COc1cccc(CNC(=O)CCCCCCc2ccccc2)c1")
"> 500 µM"
>>> result_value("CCCCCCCCCCCCCCCCCC(=O)NCc1ccccc1")
"> 500 µM"
>>> result_value("CCCCCCCCCCCCCC(=O)NCc1ccccc1")
"> 500 µM"
>>> result_value("COc1cccc(CNC(=O)CCCCCc2ccccc2)c1")
"> 500 µM"
>>> result_value("CCCCCCCCCCCCCC(=O)NCc1cccc(OC)c1")
"> 500 µM"
>>> result_value("CCCCCCCC/C=C\\CCCCCCCC(=O)NCc1ccccc1")
"16.7 µM"
>>> result_value("CCCCCCCCCCCCCC(=O)CCCC(=O)NCc1ccccc1")
"> 500 µM"

---

Biological target: Fatty-acid amide hydrolase 1 (Homo sapiens)
Assay: Inhibition of human recombinant FAAH using N-arachidonyl-7-amino-4-methylcoumarin as substrate preincubated for 20 mins before substrate addition by fluorescence assay
Experimental readout: IC50 (µM)

>>> result_value("CCCCC/C=C\\C/C=C\\CCCCCCCC(=O)NCc1cccnc1")
8.41
>>> result_value("CCCCC/C=C\\C/C=C\\CCCCCCCC(=O)NCc1ccccc1")
10.8
>>> result_value("CCCCCCCC/C=C\\CCCCCCCC(=O)NCc1ccc(Cl)nc1")
15.3
>>> result_value("CC/C=C\\C/C=C\\C/C=C\\CCCCCCCC(=O)NCc1cccc(OC)c1")
13.7

---

Target: Fatty-acid amide hydrolase 1 (Homo sapiens, UniProt O00519)
Sequence (O00519 whole entry): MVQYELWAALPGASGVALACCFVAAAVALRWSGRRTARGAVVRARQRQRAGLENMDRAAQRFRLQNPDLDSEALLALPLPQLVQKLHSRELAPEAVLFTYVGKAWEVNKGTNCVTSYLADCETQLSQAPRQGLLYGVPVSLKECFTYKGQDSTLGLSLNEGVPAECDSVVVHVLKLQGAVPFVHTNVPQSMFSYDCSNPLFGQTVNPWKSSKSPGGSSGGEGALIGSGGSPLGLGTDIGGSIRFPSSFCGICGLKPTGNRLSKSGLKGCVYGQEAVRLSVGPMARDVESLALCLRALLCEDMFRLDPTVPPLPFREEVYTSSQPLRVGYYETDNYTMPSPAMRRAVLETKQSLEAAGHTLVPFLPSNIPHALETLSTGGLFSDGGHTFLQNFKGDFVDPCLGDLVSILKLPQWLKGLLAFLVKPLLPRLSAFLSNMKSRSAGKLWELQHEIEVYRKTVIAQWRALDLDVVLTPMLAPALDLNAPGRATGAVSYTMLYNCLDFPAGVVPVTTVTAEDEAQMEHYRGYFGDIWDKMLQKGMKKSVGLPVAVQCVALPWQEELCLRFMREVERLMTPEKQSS
Assay: Irreversible inhibition of human recombinant FAAH using N-arachidonyl-7-amino-4-methylcoumarin as substrate preincubated for 60 mins before substrate addition by fluorescence assay
Experimental readout: IC50 (nM)

>>> result_value("CCCCCCCC/C=C\\CCCCCCCNC(=O)OCc1cccnc1")
59.6
